Origin of measurements: paper PMC7227796

Please provide measured IC50 for the entries that follow.
- EXPERIMENTAL_SYSTEM: native AMPA receptors
- TEST_METHOD_NOTES: Radioligand binding at native AMPA receptors
- EXPERIMENTAL_PARAMETERS: read-out: AMPA IC50, native iGluRs (synaptosomes); rat synaptosomes, [3H]AMPA
Numbers only; they are read as µM.

Request - read-out IC50 | tested on native AMPA receptors | compound CNCC[C@@H]1CN[C@H](C(=O)O)[C@H]1c1cccc(C(=O)O)c1 [9b] 69

Query Cc1ccc(S(=O)(=O)Nc2cc(C(=O)O)cc([C@H]3CCN[C@@H]3C(=O)O)c2)cc1.Cl (racemic) [(±)-5k] next 23

Query Cl.O=C(O)c1cc(NC(=O)c2ccccc2)cc([C@H]2CCN[C@@H]2C(=O)O)c1 (racemic) [(±)-5m] next 24

Query O=C(O)c1cccc([C@H]2[C@H](CCO)CN[C@@H]2C(=O)O)c1 [9d] next 35
